System: MCF7 breast
Assay: NCI-60 one-dose screen, 48 h
Conditions: 10 µM unless noted
About 83,000 compounds went through this panel and 20% of them were active in at least one assay; those are over-represented in the sample as a whole. Active and inactive are the calls of the source. The calls were made as follows: active = growth percent below 10; inactive = the rest.
Possible outcomes: YES = active, NO = inactive

| Molecule | System under test | Category label |
| --- | --- | --- |
| Brc1c(-c2ccncc2)nc2n1CCS2 | MCF7 breast | NO |
| CC(=O)NCCN | MCF7 breast | NO |
| O=C1C(=O)c2ccccc2C(O)=C1CCCc1ccc(Oc2ccccc2)cc1 | MCF7 breast | NO |
| O=C(N/N=C/c1coc2ccccc2c1=O)c1cc2oc(-c3ccccc3)cc2[nH]1 | MCF7 breast | NO |
| Clc1ccc(I)c2ccccc12 | MCF7 breast | NO |
| CCOC(=O)C1=NN(c2ccccc2)C2=NC(=O)/C(=C\c3cn(-c4ccccc4)nc3-c3cc4ccccc4o3)C(=O)N12 | MCF7 breast | NO |
| CC(=O)Nc1nc(C)c(C(=O)N/N=C/N2CCCCC2)s1 | MCF7 breast | NO |
| Cc1ccc(OCCn2ccc(=O)n(CCOc3ccc(Cl)cc3C(=O)c3cc(C)cc(C)c3)c2=O)cc1 | MCF7 breast | NO |
| O=C(/C=C/c1ccc(Cl)cc1)c1ccc(Cl)cc1 | MCF7 breast | NO |
| C[C@]12CC[C@H]3[C@@H](CC[C@H]4C[C@@H](O)CC[C@@]43C)[C@@H]1CC(=O)C2 | MCF7 breast | NO |
| C=C(C)C(C(=O)OCC)(C(=O)OCC)C(C)C | MCF7 breast | NO |
| COc1ccc(Cn2cc3c(c2-c2ccccc2)CCc2cnoc2-3)cc1OC | MCF7 breast | NO |
| COc1cccc(CNC(=O)c2cccc(C3CC(=O)c4c(cc(OC)c(OC)c4OC)O3)c2)c1 (stereo not drawn) | MCF7 breast | NO |
| CC(=O)OC1CC2C3CCC4C[C@@H](NC(=O)C=C(C)C)CC[C@]4(C)C3CC[C@]2(C)[C@H]1C(C)N(C)C (stereo partly drawn) | MCF7 breast | YES |
| CCOC(=O)NNc1[nH]c(-c2ccc(OC)cc2)cc1C#N | MCF7 breast | NO |
| Oc1ccccc1\C=N/N=C/C=C/c1ccccc1 | MCF7 breast | NO |
| COc1ccc(C(=O)CN2C(=O)NC(c3ccccc3)(c3ccccc3)C2=O)cc1 | MCF7 breast | NO |
| Cc1ccc(NC(=O)CCl)cc1Cl | MCF7 breast | NO |
| C/C(=N\Nc1ccc(Cl)cn1)c1ccccn1 | MCF7 breast | YES |
| COC(=O)CC(=O)C(=O)OC | MCF7 breast | NO |
| COc1cc(C(=O)Nc2ccc(N(C)C)cc2)cc(OC)c1OC | MCF7 breast | NO |
| N#Cc1c2cccnc2c2nnc3cc(Cl)c(Cl)cc3n12 | MCF7 breast | YES |
| N=C(N)N=Nc1ccc(NN=C(N)N)cc1 | MCF7 breast | NO |

---

Each record here notes measured growth.
Test system: OVCAR-8 ovarian
Test: NCI-60 one-dose screen, 48 h (100 = growth as untreated, 0 = no growth, -100 = all killed)
Conditions: 10 µM unless noted
About 83,000 compounds went through this panel and 20% of them were active in at least one assay; those are over-represented in the sample as a whole.

| Compound | growth (%) |
| --- | --- |
| CCOC(=O)C1=C(C(F)(F)F)NC(=O)NC1CN1C(=O)c2ccccc2C1=O (stereo not given) | 114 |
| Nc1nc2c(c3cnccc13)C(c1cccc(Cl)c1)Cc1cnccc1-2 (stereo not given) | 29.3 |
| CCCCCCCCCc1cc[n+](CC(=O)c2ccc([N+](=O)[O-])cc2)cc1 | 11.7 |
| O=C(Nc1cccc(Cn2c(=O)[nH]c3ccc(Oc4ncccn4)cc3c2=O)c1)c1ccc(Cl)cc1 | 31.8 |
| CC(=O)Nc1nc(C)c(C(=O)N/N=C/c2cccs2)s1 | 112 |

---

System: NCI-H226 lung
Experiment: NCI-60 one-dose screen, 48 h (100 = growth as untreated, 0 = no growth, -100 = all killed)
Conditions: 10 µM unless noted
The panel holds about 83,000 compounds, 20% with a hit somewhere; the sample as a whole holds those more often. Active and inactive are the calls of the source. Rule for the calls: active = growth percent below 10; inactive = the rest.
Each record here notes measured growth.

| Compound | growth |
| --- | --- |
| COc1ccc2oc(=O)cc(CN3C(=O)S/C(=C\c4ccc(Cl)cc4)C3=O)c2c1 | 92.3% (inactive) |
| Brc1ccc(-c2nc3ccccc3s2)cc1 | 75.8% (inactive) |
| COc1ccc(/C=C2\CCCC3=C2N=C2SC=NN2C3c2ccc(OC)c(OC)c2)cc1OC (stereo unspecified) | 45.3% (inactive) |
| CCCCCSc1ccc2nc(NC(=O)OCCC)sc2c1 | 30.1% (inactive) |
| Cc1[nH]n(C(=S)Nc2nc3cc(Cl)c(F)cc3s2)c(=O)c1N=Nc1ccc(F)c(Cl)c1 | 95.7% (inactive) |
| Nc1nc2c(c3cnccc13)C(c1ccc(Cl)c(Cl)c1)Cc1cnccc1-2 (stereo unspecified) | -26% (active) |
| COc1ccc(-c2cc(C#N)c(NNC(C)=O)[nH]2)cc1 | 104% (inactive) |
| COc1cc(/C=C/C(=O)/C=C(/C=C/c2ccc(OC(C)=O)c(OC)c2)OB(F)F)ccc1OC(C)=O | 87.1% (inactive) |
| CC(=O)Nc1nc(C)c(C(=O)N/N=C/N2CCCCC2)s1 | 103% (inactive) |
| COc1ccc2nc3cc(Cl)ccc3c(NCCCNC(C)=O)c2c1 | 34.1% (inactive) |
| Nc1nc2c(c3cnccc13)C(c1cccc(Cl)c1)Cc1cnccc1-2 (stereo unspecified) | 17.2% (inactive) |
| O=C(/C=C1\C(=O)N(Cc2ccccc2)c2ccccc21)c1ccc(OCCN2CCCCC2)cc1 | 84.6% (inactive) |
| CCOC(=O)C1=C(C(F)(F)F)NC(=O)NC1CN1C(=O)c2ccccc2C1=O (stereo unspecified) | 111% (inactive) |
| COc1cc2ncnc(-n3ncc4cc(NC(=O)Nc5ccc(Cl)c(Cl)c5)ccc43)c2cc1OC | -63.4% (active) |
| CC(=O)Nc1nc(C)c(C(=O)NNC(=O)Nc2ccccc2)s1 | 7.19% (active) |
| COc1ccc(C2CC(=O)c3c(O)cc(OC4OC(COC5OC(C)C(O)C(O)C5O)C(O)C(O)C4O)cc3O2)cc1O (stereo unspecified) | 105% (inactive) |
| COc1ccc(C(O)(c2ccccc2)C(C(=O)O)c2ccccc2)cc1 (stereo unspecified) | 106% (inactive) |
| Nc1cc2c(cc1Br)[nH]c(=O)c1ccccc12 | 54.8% (inactive) |
| CC(C)OC(=O)Nn1cnc2ccccc21 | 106% (inactive) |
| COc1ccc(-c2nc(N)n(C(=S)Nc3ccccc3)n2)cc1 | 92.6% (inactive) |
| CCOC(=O)/C(C#N)=C(/CC)OCC | 102% (inactive) |
| CC1=C(C)C(=O)C(C(C)C2=C(C)C(=O)C(C)=C(C)C2=O)=C(C)C1=O | 124% (inactive) |
| C=C(C)C(C(=O)OCC)(C(=O)OCC)C(C)C | 109% (inactive) |
| CCOC(=O)C(C)C(C)(O)c1ccccc1 (stereo unspecified) | 94.1% (inactive) |
| Oc1ccccc1/C=N/N=C/c1c(O)ccc2ccccc12 | 90.8% (inactive) |
| C=CN(C)S(C)(=O)=O | 91.2% (inactive) |
| Cc1c(Cc2ccccc2)c(=O)oc2c(C)c(OCc3n[nH]c(=S)o3)ccc12 | 84.8% (inactive) |
| CC(C)(C)C(=O)OCOP(=O)(OCOC(=O)C(C)(C)C)C1CC(O)N(O)C1=O (stereo unspecified) | 71.6% (inactive) |
| CCC(C)C1NC(=O)C(CCCCN)NC(=O)C(CCCCN)NC(=O)C(CC(C)C)NC(=O)C(CCCCN)NC(=O)C(C(C)CC)NC(=O)C(C(C)C)NC(=O)C(C(C)CC)NC(=O)C(CCCCN)NC(=O)C(CCCCN)NC(=O)C(C)NC(=O)C(CCCCN)NC(=O)C(CC(C)C)NC1=O (stereo unspecified) | 46.8% (inactive) |
| O=C(/C=C/c1c[nH]c2ccccc12)c1cc2ccccc2o1 | 100% (inactive) |
| Cc1nc(N)sc1C(=O)NCCO | 97.2% (inactive) |
| CCOC(=O)c1c2c(cn1Cc1ccccc1)-c1oncc1CC2 | 79.4% (inactive) |
| CCCC(=O)NNc1[nH]c(-c2ccc(OC)cc2)cc1C(=O)OCC | 104% (inactive) |
| CSc1nc(N)n2nccc2n1 | 83.9% (inactive) |
| CCOC(=O)C1=C(C(F)(F)F)NC(=S)NC1CN1C(=O)c2ccccc2C1=O (stereo unspecified) | 116% (inactive) |
| CCS(=O)(=O)OCCO[C@H]1Cc2cc3ccc(=O)oc3cc2OC1(C)C | 98.4% (inactive) |
| CCC(C)[C@H](NC(=O)Nc1cc(C(F)(F)F)cc(C(F)(F)F)c1)C(=O)N[C@@H](Cc1cn(C)cn1)C(=O)OC (stereo partly specified) | -50.6% [100 µM] (active) |
| COC(=O)c1ccc2[nH]c(O)c(C(=Nc3ccc(N(C)C(=O)CN4CCN(C)CC4)cc3)c3ccc(CCO)cc3)c2c1 | 57% (inactive) |
| CC(=O)c1ccc2c(c1)c1ccccc1n2C | 84.2% (inactive) |
| CCCCCCN(CCCCCC)CCC(=O)Nc1ccc(S(=O)(=O)c2ccc(NC(=O)CCN(CCCCCC)CCCCCC)cc2)cc1 | 78.6% (inactive) |
| CCn1cc(C(=O)O)c(=O)c2cc(F)c(N3CCN(S(=O)(=O)c4ccc(Cl)cc4)CC3)cc21 | 60.1% (inactive) |

Source listed as PubChem BioAssay (NCI).
